# reported GLP-2R - cAMP 0% FBS/nM (EC50, CRE-luciferase reporter); entries follow
# tested-system: T1, human GLP-2R (human, UniProt O95838 1-553)
# T1 sequence (looked up): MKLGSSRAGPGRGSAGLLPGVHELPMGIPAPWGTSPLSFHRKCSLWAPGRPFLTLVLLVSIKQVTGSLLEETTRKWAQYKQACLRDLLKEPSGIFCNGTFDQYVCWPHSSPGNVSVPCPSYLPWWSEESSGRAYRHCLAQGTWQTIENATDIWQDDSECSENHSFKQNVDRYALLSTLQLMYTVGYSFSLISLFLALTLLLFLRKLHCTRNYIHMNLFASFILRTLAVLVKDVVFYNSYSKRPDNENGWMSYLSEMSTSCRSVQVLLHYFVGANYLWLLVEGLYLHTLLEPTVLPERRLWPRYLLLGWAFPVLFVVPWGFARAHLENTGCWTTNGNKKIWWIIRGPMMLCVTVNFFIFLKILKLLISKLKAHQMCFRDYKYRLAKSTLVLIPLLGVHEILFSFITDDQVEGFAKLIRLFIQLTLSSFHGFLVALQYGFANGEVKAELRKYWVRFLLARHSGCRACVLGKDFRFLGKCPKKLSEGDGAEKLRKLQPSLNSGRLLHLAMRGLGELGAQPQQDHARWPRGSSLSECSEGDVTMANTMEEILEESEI
# assay-procedure: cell-based or functional assay
Bridges are numbered along the chain shown (N, C = ends). Where no end group is shown, it is not given here. [ ]: non-standard residue; d: D form. Nle = CCCC[C@H](N)C(=O)O; Nva = CCC[C@H](N)C(=O)O; L5A = not defined here; K5 = not defined here
Give just the numeric value; nM need not be written.

Please review the entries below; each comes with its answer.
| binder | quantity-unit | experimental-result |
| --- | --- | --- |
| HGDGSFSDEMCTILDNLCARDFINWLIQTKITDPSSGAPPPS (linker 11-18 via L5A; ends not checked) [Conjugate 10: GLP2-2G-6-EX4 (SEQ ID NO. 9) with staple L5A at positions 11, 18] | nM | 2.09 |
| HGDGSFSDE[Nle][dF]TILDNKAARDFIKWLIQTKITDPSSGAPPPS (bridge 17-24; not fully specified (bridges); ends not checked) [Conjugate 12: GLP2-2G-10Nle-11f-1K-EX4 (SEQ ID NO. 11) with staple K5 at positions 17, 24] | nM | 2.13 |
| HGDGSFSDEM[dF]TILDNKAARDFIKWLIQTKITDPSSGAPPPS (linker 17-24 via K5; reading uncertain) [Conjugate 18: GLP2-2G-11f-1K-EX4 (SEQ ID NO. 17) with staple K5 at positions 17, 24] | nM | 1.41 |

Data point: HGDGSFSDE[Nva]NTILDNCAARDFICWLIQTKITDPSSGAPPPS (linker 17-24 via L5A; reading uncertain) [Conjugate 6: GLP2-2G-10Nva-1-EX4 (SEQ ID NO. 6) with staple L5A at positions 17, 24] ; GLP-2R - cAMP 0% FBS/nM (EC50, CRE-luciferase reporter) = 5.74

Measured GLP-2R - cAMP 0% FBS/nM (EC50, CRE-luciferase reporter) of HGDGSFSDE[Nle]NT[Nle][Nle]DNKAARDFIKWLIQTKITDPSSGAPPPS (linker 17-24 via K5; reading uncertain) [Conjugate 15: GLP2-2G-10Nle-13Nle-14Nle-1K-EX4 (SEQ ID NO. 14) with staple K5 at positions 17, 24] : 1.99
